B1: tRNA (parent)
chain: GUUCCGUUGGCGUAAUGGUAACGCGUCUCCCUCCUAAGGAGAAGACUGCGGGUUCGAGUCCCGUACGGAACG

Variants of: B1
Assay: yeast fitness relative to wild type (ratio to wild type); higher = fitter; tRNA-Arg(CCU), competitive growth, 37 C, YPD
This sample holds only a part of the variants without activity.
experimentalReadout: yeast fitness

Known yeast fitness results, listed for orientation:
- GUUCCGCUGGCGUAAUGGUAACGCGUCUCCCUCCUAAGGAGAAGACUGCGCGUUCGUGUCCCGUACGGAACG: ≤ 0.5
- GUUCCGUUGGCGUAAUGGUAACGCGUCUCCCUCCUAAGGAGAAGACUACGGGUUCGAGUCGCGUACGGAACG: 0.559
- GUUCCGUUGGCGUAAUGGUAACGCGUCCCCCUCCUAAGGAGGAGACAGCGGGUUCGAGUCCCGUACGGAACG: 0.535
- GUUCCGUUGGCGUAAUGGUAACGCGUCACCCUCCUACGGAGAAGACUGCGGGUUCGAGUCGCGUACGGAACG: ≤ 0.5
- GUUUCGUUGGCGUGAUGGUAACGCGUCUCCCUCCUAAGGAGAAGAGUGCGGGUUCGAGUCCCGUACGGAACG: 0.659
- GUUCCGAUGGCGUAAUGGUGACGCGUCUCCCUCAUAAGGAGAAAAUUGCGGGUUCGAGUCCCGUACGGACCG: ≤ 0.5
- GUUCCGUUGGCGUAAUGGUAGAGCGUCUCCCUCCUAAGGAGAAGACUGCGGGUUCGAGUCCUGUAAGGAACG: ≤ 0.5
- GUUCCGUUGGCGUAAUGGUAACGAGUCUCCCUACUAAGGAGAAGACUGUGGGUGCGAGUCCCGUACGGACCG: ≤ 0.5

Task item: // fetch yeast fitness given entry GUUCCGUUGGCGUAAUGGUAACGCGUUUCCCUCCCAAGGAGAAGACUGCGGGUUCGAGUCCCGUACGGUACG
Reply: 0.802

Task item: Give reported yeast fitness value for GUUCCGUUGGGGUAAUGGUAACGCGUUUCCCUCCUAAGGAGAAGAGUGCGGGUUCGAGUCCCGUACGGAACG
Reply: ≤ 0.5

Task item: For the variant GUUCCGAUGGCGUAAUGGUAACGCGUCUCCCUCCUAAGGAGAACACUGCGGGUUCGAGUCCCGUAUGGAACG , give its reported yeast fitness.
Reply: ≤ 0.5

Task item: Note yeast fitness for the variant shown: GUUCGGUUGGCGAAAUGGUAAGGCGUCUGCCUCCUAAGGUGAAGACUGCGGGUUCGAGUCCCGUACGGAACG
Reply: 0.556

Task item: Supply yeast fitness value. Item: GUUCCGUUGGCGUAGUGGCAACGCGUCUCCCUCCUAUGGAGAAGACUGUGAGUUCGAGUCCCGAACGGAACG
Reply: ≤ 0.5
